System: A375 (Amelanotic Melanoma)
Protocol Notes: Cell viability analysis, skin cancer A375
Type: cell-based, human
Measurement Conditions: Homo sapiens, A-375, 72 h, read-out: cell viability (survival rate), A375, drug 10 μM, 72 hours, WST-1, OD450 nm
Counter-ions that a name gives are not always drawn.
Threshold 80%: viability at 10 µM strictly smaller gives fulfilled, otherwise not fulfilled.

Answered examples (8):
Nc1ncnc2c1ncn2[C@@H]1O[C@H](CO)[C@@H](O)[C@@H]1O ... fulfilled
CC(NC(C)(C)C)C(=O)c1cccc(Cl)c1 (centres unmarked) ... not fulfilled
NCCS(=O)(=O)O ... fulfilled
Nc1ccc(S(=O)(=O)Nc2nccs2)cc1 ... fulfilled
CCn1nc(C(=O)O)c(=O)c2cc3c(cc21)OCO3 ... fulfilled
[H]/N=C(/N)NS(=O)(=O)c1ccc(N)cc1 ... not fulfilled
CC(NCCc1ccc(O)cc1)C(O)c1ccc(O)cc1 (centres unmarked) [Ritodrine hydrochloride (Yutopar), Ritodrine hydrochloride] ... not fulfilled
O=c1cc[nH]c(=O)[nH]1 ... not fulfilled

Query: Quick check: does CC(=O)NC[C@H]1CN(c2ccc(N3CCOCC3)c(F)c2)C(=O)O1 [Linezolid (Zyvox), Linezolid] have viability at 10 µM under 80%?
Response: fulfilled

Query: Quick check: does `Cc1noc(NS(=O)(=O)c2ccc(N)cc2)c1C` have viability at 10 µM under 80%?
Response: fulfilled

Query: Quick check: does `CS(=O)(=O)c1ccc([C@@H](O)[C@@H](CF)NC(=O)C(Cl)Cl)cc1` have viability at 10 µM under 80%?
Response: not fulfilled

----------
System: HL-60 (Acute Promyelocytic Leukemia)
Protocol Notes: Cell viability analysis, leukemia HL-60
Assay type: cell-based, human
Measurement Conditions: Homo sapiens, HL-60, 72 h, read-out: cell viability (survival rate), HL-60
Listing: viability at 10 µM of selected compounds
The response must be a number in % with no trailing unit.

Solved cases below.
COc1cc(C)c(/C=C/C(C)=C/C=C/C(C)=C/C(=O)O)c(C)c1C ... 96.7
CCCCCCCCCCCCCCCC[n+]1ccccc1 [Cetylpyridinium Chloride] ... 30.8
C[N+](C)(C)CCO.[Cl-] [Choline Chloride] ... 91.1
Cl.NCCc1ccc(O)c(O)c1 [Dopamine hydrochloride (Inotropin), Dopamine hydrochloride] ... 91.5

Next:
Value sought: viability at 10 µM, system HL-60 (Acute Promyelocytic Leukemia), item O=C([O-])c1ccccc1O.[Na+] [Sodium salicylate] . Result: 94.7

----------
Test system: NIH: OVCAR-3
Protocol Notes: Cell viability analysis, ovarian cancer NIH: OVCAR-3
Assay type: cell-based, human
Measurement Conditions: Homo sapiens, OVCAR-3, 72 h, read-out: The results of antibiotic drug inhibiting cancer cell lines (cell viability analysis), NIH-OVCAR-3
Listing: viability at 10 µM of selected compounds
Note: a bare number is incomplete; add the unit.

Cc1noc(NS(=O)(=O)c2ccc(N)cc2)c1C [Sulfisoxazole] yielded viability at 10 µM of 108%

----------
Test system: PC3 (p53−) (Prostate Adenocarcinoma)
Protocol Notes: Cell viability analysis, prostate cancer PC3
Format: cell-based, human
Measurement Conditions: drug 10 μM, 72 hours, WST-1, OD450 nm
Listing: cell viability (survival rate), PC3 of selected compounds
Please give the numeric answer without any surrounding text.

CC1(C)S[C@@H]2[C@H](NC(=O)[C@H](N)c3ccc(O)cc3)C(=O)N2[C@H]1C(=O)[O-].[Na+] [Amoxicillin sodium (Amox), Amoxicillin sodium] ... 74.8
O=C([O-])C(O)[C@H](O)[C@@H](O)[C@H](O)[C@H](O)CO.O=C([O-])C(O)[C@H](O)[C@@H](O)[C@H](O)[C@H](O)CO.[Ca+2] (stereo partly shown) [Calcium Gluceptate] ... 37.91
CN(C)CCCN1c2ccccc2CCc2ccc(Cl)cc21.Cl [Clomipramine HCl (Anafranil)] ... 75.8

CN(C/C=C/C#CC(C)(C)C)Cc1cccc2ccccc12.Cl [Terbinafine HCl (Lamisil)] yielded cell viability (survival rate), PC3 of 70.8

These measurements were taken from patent US10105357B2.
